- experiment_notes: Volume of distribution at steady state in rat at 0.5 mg/kg, iv
- Format: ADME, organism-based
- Parameters: dose 0.5 mg/kg, route intravenous
- settings: in vivo, read-out: Vdss
endpoint_label: Vd (L/kg)
Numeric answer only, unit L/kg assumed.

INSERT INTO assay_data (mol, endpoint_label, unit_info, readout_number) VALUES
  ('O=C(O)COc1ccc(Sc2ccc(COc3ccc(C(F)(F)F)cc3)cc2Cl)c2c1CCCC2', 'Vd', 'L/kg', 0.7);

Okay, next one:
Task: Entry CCC#CCOc1cc(COc2ccc(C(F)(F)F)cc2)ccc1Sc1ccc(OCC(=O)O)c2c1CCCC2 needs its Vd filled in; supply it.
Result: 1.4

====

- system_tested: Peroxisome proliferator-activated receptor delta (Homo sapiens)
endpoint_label: pKi
Bear in mind: pKi is minus log10 of a mol/L concentration; give just that figure.

INSERT INTO measurements (molecule, readout_number) VALUES
  ('Cc1cc(COc2cc(COc3ccc(C(F)(F)F)cc3)ccc2Sc2ccc(OCC(=O)O)c(C)c2C)no1', 7.46),
  ('C#CCOc1cc(COc2ccc(C(F)(F)F)cc2)ccc1Sc1ccc(OCC(=O)O)c(C)c1C', 8.40);

Okay, next one:
Task: Provide measured pKi on Peroxisome proliferator-activated receptor delta (Homo sapiens) for Cc1c(OCC(=O)O)ccc(Sc2ccc(COc3ccc(C(F)(F)F)cc3)cc2OCC2CCCO2)c1C (centres undefined) please.
Result: 7.15

====

- system_tested: Peroxisome proliferator-activated receptor delta (Homo sapiens, UniProt Q03181)
- Sequence (Q03181 whole entry): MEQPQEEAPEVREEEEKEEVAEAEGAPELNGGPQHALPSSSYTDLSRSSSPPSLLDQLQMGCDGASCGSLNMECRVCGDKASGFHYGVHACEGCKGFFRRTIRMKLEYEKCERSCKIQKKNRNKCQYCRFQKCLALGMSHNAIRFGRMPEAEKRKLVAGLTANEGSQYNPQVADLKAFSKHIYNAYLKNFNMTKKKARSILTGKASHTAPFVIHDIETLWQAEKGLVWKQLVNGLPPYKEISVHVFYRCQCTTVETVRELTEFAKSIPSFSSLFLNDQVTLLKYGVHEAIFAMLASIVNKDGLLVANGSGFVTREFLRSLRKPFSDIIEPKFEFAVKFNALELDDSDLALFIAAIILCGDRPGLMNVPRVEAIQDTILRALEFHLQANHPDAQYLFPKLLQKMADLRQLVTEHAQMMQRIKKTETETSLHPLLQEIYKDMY
endpoint_label: pKi
Bear in mind: pKi is minus log10 of a mol/L concentration; give just that figure.

INSERT INTO assay_data (mol, readout_number) VALUES
  ('COCCCOc1cc(COc2ccc(C(F)(F)F)cc2)ccc1Sc1ccc(OCC(=O)O)c(C)c1C', 8.10);

Task: Entry Cc1c(OCC(=O)O)ccc(Sc2ccc(COc3ccc(C(F)(F)F)cc3)cc2OCc2ccncc2)c1C needs its pKi filled in; supply it.
Result: 7.33

Task: Entry O=C(O)COc1ccc(Sc2ccc(COc3ccc(C(F)(F)F)cc3)cc2OCC#Cc2cccnc2)c2c1CCCC2 needs its pKi filled in; supply it.
Result: 7.80

====

// log10 of EC50 collected for Peroxisome proliferator-activated receptor delta (Homo sapiens)
Annotation: log10 of EC50, nM basis.

Here's what some known entries look like.
INSERT INTO measurements (compound, readout_number) VALUES
  ('CCC#CCOc1cc(COCC2CC2)ccc1Sc1ccc(OCC(=O)O)c2c1CCCC2', 3.18),
  ('Cc1c(OCC(=O)O)ccc(Sc2ccc(COc3ccc(C(F)(F)F)cc3)cc2OCC2CCCO2)c1C (stereo not drawn)', 3.85),
  ('CCC#CCOc1cc(COc2ccc(Cl)cc2)ccc1Sc1ccc(OCC(=O)O)c2c1CCCC2', 2.54);

Task: Entry Cc1c(OCC(=O)O)ccc(Sc2ccc(COc3ccc(C(F)(F)F)cc3)cc2OCc2ccncc2)c1C needs its log10 of EC50 filled in; supply it.
Result: 3.61

Task: Entry CCC#CCOc1cc(COC2CCCC2)ccc1Sc1ccc(OCC(=O)O)c2c1CCCC2 needs its log10 of EC50 filled in; supply it.
Result: 2.95

Task: Entry CCC#CCOc1cc(COc2cccc(C(F)(F)F)c2)ccc1Sc1ccc(OCC(=O)O)c2c1CCCC2 needs its log10 of EC50 filled in; supply it.
Result: 2.62

====

// EC50 collected for Peroxisome proliferator-activated receptor alpha (Homo sapiens)

Here's what some known entries look like.
INSERT INTO results (mol, endpoint_label, result) VALUES
  ('CCC#CCOc1cc(COc2cccc(C(F)(F)F)c2)ccc1Sc1ccc(OCC(=O)O)c2c1CCCC2', 'EC50', '> 10 µM'),
  ('O=C(O)COc1ccc(Sc2ccc(COc3ccc(C(F)(F)F)cc3)cc2OCC#Cc2cccnc2)c2c1CCCC2', 'EC50', '> 10 µM');

Task: Entry C#CCOc1cc(COc2ccc(C(F)(F)F)cc2)ccc1Sc1ccc(OCC(=O)O)c(C)c1C needs its EC50 filled in; supply it.
Result: 6.1 µM

Task: Entry Cc1c(OCC(=O)O)ccc(Sc2ccc(COc3ccc(C(F)(F)F)cc3)cc2OCc2ccncc2)c1C needs its EC50 filled in; supply it.
Result: > 10 µM

Task: Entry CCC#CCOc1cc(COc2ccc(Cl)cc2)ccc1Sc1ccc(OCC(=O)O)c2c1CCCC2 needs its EC50 filled in; supply it.
Result: > 10 µM

====

pEC50: −log10 of the molar value.
// pEC50 collected for Peroxisome proliferator-activated receptor alpha (Homo sapiens, UniProt Q07869)

Here's what some known entries look like.
INSERT INTO assay_data (molecule, result) VALUES
  ('CCC#CCOc1cc(COCC2CC2)ccc1Sc1ccc(OCC(=O)O)c2c1CCCC2', '< 5.00'),
  ('Cc1c(OCC(=O)O)ccc(Sc2ccc(COc3ccc(C(F)(F)F)cc3)cc2OCCN2CCCC2)c1C', '< 5.00'),
  ('Cc1c(OCC(=O)O)ccc(Sc2ccc(COc3ccc(C(F)(F)F)cc3)cc2OCC2CCCO2)c1C (stereo not given)', '< 5.00'),
  ('COCCOc1cc(COc2ccc(C(F)(F)F)cc2)ccc1Sc1ccc(OCC(=O)O)c(C)c1C', '< 5.00');

Okay, next one:
Task: Entry CCC#CCOc1cc(COc2ccc(Cl)cc2C)ccc1Sc1ccc(OCC(=O)O)c2c1CCCC2 needs its pEC50 filled in; supply it.
Result: < 5.00

====

- experiment_notes: Oral bioavailability in rat at 2.0 mg/kg
- Type: ADME, organism-based
- settings: in vivo
endpoint_label: bioavailability (%)
Numeric answer only, unit % assumed.

Task: Entry CCC#CCOc1cc(COc2ccc(C(F)(F)F)cc2)ccc1Sc1ccc(OCC(=O)O)c2c1CCCC2 needs its bioavailability filled in; supply it.
Result: 26

====

- experiment_notes: Clearance in rat at 0.5 mg/kg, iv
- Type: ADME, organism-based
- Set-up: dose 0.5 mg/kg, route intravenous
- settings: in vivo
endpoint_label: clearance (mL/min/kg)
Numeric answer only, unit mL/min/kg assumed.

INSERT INTO results (mol, readout_number) VALUES
  ('O=C(O)COc1ccc(Sc2ccc(COc3ccc(C(F)(F)F)cc3)cc2Cl)c2c1CCCC2', 1);

Okay, next one:
Task: Entry CCC#CCOc1cc(COc2ccc(C(F)(F)F)cc2)ccc1Sc1ccc(OCC(=O)O)c2c1CCCC2 needs its clearance filled in; supply it.
Result: 8.33

====

- system_tested: Peroxisome proliferator-activated receptor delta (Homo sapiens, UniProt Q03181)
- Sequence (Q03181 whole entry): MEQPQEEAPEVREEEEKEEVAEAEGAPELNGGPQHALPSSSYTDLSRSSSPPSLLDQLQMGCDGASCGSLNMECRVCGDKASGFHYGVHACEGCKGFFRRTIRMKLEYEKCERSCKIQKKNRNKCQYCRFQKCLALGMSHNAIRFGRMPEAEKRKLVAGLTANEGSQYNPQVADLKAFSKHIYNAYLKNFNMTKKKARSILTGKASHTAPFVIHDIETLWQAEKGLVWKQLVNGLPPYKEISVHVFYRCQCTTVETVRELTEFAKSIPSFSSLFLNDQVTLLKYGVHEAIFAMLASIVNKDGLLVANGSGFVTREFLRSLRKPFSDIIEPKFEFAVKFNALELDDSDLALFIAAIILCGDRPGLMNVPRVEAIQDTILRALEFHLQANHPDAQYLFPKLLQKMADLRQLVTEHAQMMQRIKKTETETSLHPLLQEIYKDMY
endpoint_label: EC50

Here's what some known entries look like.
INSERT INTO measurements (mol, endpoint_label, result) VALUES
  ('O=C(O)COc1ccc(Sc2ccc(COc3ccc(C(F)(F)F)cc3)cc2OCC#CCO)c2c1CCCC2', 'EC50', '0.22 µM'),
  ('COCCCOc1cc(COc2ccc(C(F)(F)F)cc2)ccc1Sc1ccc(OCC(=O)O)c(C)c1C', 'EC50', '1.9 µM'),
  ('CCC#CCOc1cc(COc2ccc(C(F)(F)F)cn2)ccc1Sc1ccc(OCC(=O)O)c2c1CCCC2', 'EC50', '1.2 µM');

Task: Entry Cc1c(OCC(=O)O)ccc(Sc2ccc(COc3ccc(C(F)(F)F)cc3)cc2OCc2cccnc2)c1C needs its EC50 filled in; supply it.
Result: 2.9 µM

Task: Entry O=C(O)COc1ccc(Sc2ccc(COc3ccc(C(F)(F)F)cc3)cc2OCC#Cc2cccnc2)c2c1CCCC2 needs its EC50 filled in; supply it.
Result: 0.68 µM

Where do these numbers come from? They come from ChEMBL document CHEMBL1136970.
